# system-name: MAP kinase-interacting serine/threonine-protein kinase 1 (Homo sapiens) (UniProt Q9BUB5);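 note: each value is an averaged percent inhibition of MKNK1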
# Sequence (Q9BUB5 whole entry, looked up): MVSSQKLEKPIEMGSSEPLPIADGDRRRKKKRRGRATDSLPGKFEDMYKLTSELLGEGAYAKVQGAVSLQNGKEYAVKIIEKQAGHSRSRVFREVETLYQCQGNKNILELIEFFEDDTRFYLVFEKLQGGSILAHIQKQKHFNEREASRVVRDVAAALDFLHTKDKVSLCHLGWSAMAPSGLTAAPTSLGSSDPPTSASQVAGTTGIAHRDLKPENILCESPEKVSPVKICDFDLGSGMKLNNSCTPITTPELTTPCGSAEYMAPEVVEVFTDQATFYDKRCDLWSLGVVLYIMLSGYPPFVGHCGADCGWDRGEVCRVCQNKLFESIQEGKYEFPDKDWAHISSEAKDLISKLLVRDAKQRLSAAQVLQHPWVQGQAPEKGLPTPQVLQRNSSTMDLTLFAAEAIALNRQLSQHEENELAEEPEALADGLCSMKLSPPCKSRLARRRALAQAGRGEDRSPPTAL
# experimental-context: at 1 µM
recorded-metric: inhibition (%)
Field format: number, assumed %, no unit text.

Query :: Any idea what inhibition was measured for "NC(=O)c1ccc(-c2nc(-c3ccccn3)c(-c3ccc4c(c3)OCO4)[nH]2)cc1" ?
Result :: 5.1

Query :: "COc1cc2ncn(-c3cc(OCc4ccccc4Cl)c(C(N)=O)s3)c2cc1OC" ?
Result :: 7.42

Query :: "COc1ccc(COc2ccc(Cc3cnc(N)nc3N)cc2OC)cc1" ?
Result :: 0.82

Query :: "CCc1cccc(NC(=O)Nc2ccc(Oc3ccc4nc(NC(=O)OC)[nH]c4c3)cc2)c1" ?
Result :: 15.8

Query :: "c1cnn2ncc(-c3ccnc(Nc4ccc5c(c4)OCCO5)n3)c2c1" ?
Result :: 14.5

Query :: "[O-][S+]1CCN(Cc2ccc(-c3ccc4ncnc(Nc5ccc(OCc6ccccc6)c(F)c5)c4c3)o2)CC1" ?
Result :: 4.41

Query :: "Fc1cccc(COc2ccc(Nc3ncnc4sc(-c5cccs5)cc34)cc2Cl)c1" ?
Result :: 5.61

Query :: "COc1cc2ncn(-c3cc(O[C@H](C)c4ccccc4Cl)c(C(N)=O)s3)c2cc1OC" ?
Result :: 11.9

Query :: "COc1ccc(-c2coc3ncnc(N)c23)cc1" ?
Result :: 4.3

Query :: "COc1cc2ncn(-c3cc(O[C@@H](C)c4ccccc4Cl)c(C(N)=O)s3)c2cc1OC" ?
Result :: 2.74

Query :: "CN(C)c1cc2c(Nc3ccc4nc(Cc5ccccc5)[nH]c4c3)ncnc2cn1" ?
Result :: 8.7

Query :: "Cc1cc(O)cc(C)c1/C=C/c1cncc(-c2nn[nH]n2)c1" ?
Result :: 65.3

Query :: "Cc1nn(C)c2cc(N(C)c3ccnc(Nc4cccc(S(N)(=O)=O)c4)n3)ccc12" ?
Result :: 6.83

Query :: "COC(=O)Nc1nc2cc(Oc3cccc(NC(=O)Nc4cc(C(F)(F)F)ccc4F)c3)ccc2[nH]1" ?
Result :: 1.01

Query :: "CS(=O)(=O)Nc1ccc(N/C=C2\C(=O)Nc3ccccc32)cc1" ?
Result :: -0.33

Query :: "COc1cc(C)c(NC(=O)CN(C)C)cc1Nc1nc(Nc2cccc(F)c2C(N)=O)c2cc[nH]c2n1" ?
Result :: 0.39

Query :: "Cc1ccc(C(=O)NC2CCCCC2)cc1-c1ccc(C(=O)NCC2CC2)cc1" ?
Result :: 2.58

Query :: "CCn1c(-c2nonc2N)nc2cncc(C(=O)N3CC[C@H](N)C3)c21" ?
Result :: 9.55

Query :: CC1=C(C(=O)Nc2ccc3[nH]ncc3c2)C(c2ccc(F)cc2)NC(=O)N1 (stereo not given) ?
Result :: 46.2

Query :: "N#Cc1c(NC(=O)c2cccc3ccccc23)sc2c1CCCC2" ?
Result :: 4.73
